// values below are reported log10 IC50
# Experimental Target: OCT2 (Homo sapiens, UniProt O15244)
# Sequence (O15244 whole entry): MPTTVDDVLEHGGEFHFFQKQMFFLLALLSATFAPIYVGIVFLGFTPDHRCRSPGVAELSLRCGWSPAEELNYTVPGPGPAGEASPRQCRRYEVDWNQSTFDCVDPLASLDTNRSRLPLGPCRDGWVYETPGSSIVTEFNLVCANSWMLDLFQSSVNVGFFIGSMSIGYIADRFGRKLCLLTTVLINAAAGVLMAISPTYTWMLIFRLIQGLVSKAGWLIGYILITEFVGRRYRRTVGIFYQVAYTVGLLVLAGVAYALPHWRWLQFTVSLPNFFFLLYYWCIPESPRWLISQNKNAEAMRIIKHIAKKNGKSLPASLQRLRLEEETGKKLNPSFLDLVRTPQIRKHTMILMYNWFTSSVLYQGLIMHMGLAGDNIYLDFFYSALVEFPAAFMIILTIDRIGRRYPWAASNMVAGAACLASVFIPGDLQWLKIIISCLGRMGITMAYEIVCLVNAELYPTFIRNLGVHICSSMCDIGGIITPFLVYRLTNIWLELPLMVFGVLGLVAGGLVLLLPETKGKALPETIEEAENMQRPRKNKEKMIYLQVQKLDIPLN
# Test Description: Inhibition of OCT2-mediated metformin uptake in transfected MDCK-II cells
log10 IC50, µM

# example entries with known answers
COc1cc(OC)c(C(=O)CCCN2CCCC2)c(OC)c1
0.76
CC(C)[N+](C)(CCOC(=O)C1c2ccccc2Oc2ccccc21)C(C)C
0.23
CN/C(=N/CCSCc1nc[nH]c1C)NC#N
1.76

Now consider the entry below.
**Q:** Look up and report measured log10 IC50 for this entry: Clc1ccc(COC(Cn2ccnc2)c2ccc(Cl)cc2Cl)c(Cl)c1 (stereo not shown)
**A:** 2.15

###

// values below are reported Plasma peak unbound concentration Cmax,u
# Test Conditions: human, in vivo
Use nM as the unit, but write only the number.

# example entries with known answers
N=C(N)c1ccc(OCCCCCOc2ccc(C(=N)N)cc2)cc1
230
CN/C(=N/CCSCc1nc[nH]c1C)NC#N
9600
Clc1ccc(COC(Cn2ccnc2)c2ccc(Cl)cc2Cl)c(Cl)c1 (stereo not shown)
1190

Now consider the entry below.
**Q:** Look up and report measured Plasma peak unbound concentration Cmax,u for this entry: CCNC(=O)[C@@H]1CCCN1C(=O)[C@H](CCCNC(=N)N)NC(=O)[C@H](CC(C)C)NC(=O)[C@@H](CC(C)C)NC(=O)[C@H](Cc1ccc(O)cc1)NC(=O)[C@H](CO)NC(=O)[C@H](Cc1c[nH]c2ccccc12)NC(=O)[C@H](Cc1c[nH]cn1)NC(=O)[C@@H]1CCC(=O)N1 [Leuprolide]
**A:** 10

###

# Experimental Target: OCT2 (Homo sapiens, UniProt O15244)
# Test Description: Inhibition of OCT2-mediated oxaliplatin transport in 100% human serum or HBSS containing 4% BSA (IC50,app)
Observable: IC50 (µM)
Use µM as the unit, but write only the number.

**Q:** Look up and report measured IC50 for this entry: C[N+]1(C)[C@@H]2C[C@@H](OC(=O)C(O)(c3cccs3)c3cccs3)C[C@H]1[C@@H]1O[C@@H]12 [Tiotropium•Br]
**A:** 1.1

###

// values below are reported IC50
# Experimental Target: OCT2 (Homo sapiens, UniProt O15244)
# Test Description: Inhibition of OCT2-mediated oxaliplatin transport in 100% human serum or HBSS containing 4% BSA (IC50,app)
# Test Conditions: IC50,app (μM), apparent inhibition constant in 100% human serum or HBSS containing 4% BSA; OCT2-mediated oxaliplatin uptake
Use µM as the unit, but write only the number.

# example entries with known answers
Clc1ccc(COC(Cn2ccnc2)c2ccc(Cl)cc2Cl)c(Cl)c1 (centres unmarked)
3.3
C[C@@H]1CCO[C@H]2Cn3cc(C(=O)NCc4ccc(F)cc4F)c(=O)c(O)c3C(=O)N12
3.37
CN/C(=N/CCSCc1nc[nH]c1C)NC#N
36.8
COc1cc(OC)c(C(=O)CCCN2CCCC2)c(OC)c1
1.45

Now consider the entry below.
**Q:** Look up and report measured IC50 for this entry: CC(C)[N+](C)(CCOC(=O)C1c2ccccc2Oc2ccccc21)C(C)C
**A:** 0.24

###

# Experimental Target: OCT2 (Homo sapiens)
# Test Description: Inhibition of OCT2-mediated oxaliplatin uptake in transfected MDCK-II cells (protein-free HBSS)
# Test Conditions: human
// values below are reported inhibition at 30 min, 50 μM
Use % as the unit, but write only the number.

NC1=NCC2c3ccccc3Cc3ccccc3N12 (stereo not shown) [Epinastine]
100
Cc1ccc(NC(=O)c2ccc(CN3CCN(C)CC3)cc2)cc1Nc1nccc(-c2cccnc2)n1 [Imatinib]
95
OCC(O)COc1ccc(Cl)cc1 (stereo not shown) [Chlorphenesin]
30
C[N+]1(C)[C@@H]2C[C@@H](OC(=O)C(O)(c3cccs3)c3cccs3)C[C@H]1[C@@H]1O[C@@H]12 [Tiotropium•Br]
102
CN/C(=N/CCSCc1nc[nH]c1C)NC#N [Cimetidine]
83
CCNC(=O)[C@@H]1CCCN1C(=O)[C@H](CCCNC(=N)N)NC(=O)[C@H](CC(C)C)NC(=O)[C@@H](CC(C)C)NC(=O)[C@H](Cc1ccc(O)cc1)NC(=O)[C@H](CO)NC(=O)[C@H](Cc1c[nH]c2ccccc12)NC(=O)[C@H](Cc1c[nH]cn1)NC(=O)[C@@H]1CCC(=O)N1 [Leuprolide]
97
N=C(N)c1ccc(OCCCCCOc2ccc(C(=N)N)cc2)cc1 [Pentamidine]
99
NC(=O)OCC(O)COc1ccc(Cl)cc1 (stereo not shown) [Chlorphenesin Carbamate]
36

**Q:** Look up and report measured inhibition at 30 min, 50 μM for this entry: Clc1ccc(COC(Cn2ccnc2)c2ccc(Cl)cc2Cl)c(Cl)c1 (stereo not shown) [Miconazole]
**A:** 97

**Q:** Look up and report measured inhibition at 30 min, 50 μM for this entry: COc1cc(OC)c(C(=O)CCCN2CCCC2)c(OC)c1 [Buflomedil]
**A:** 105
